B1: scFv; the commonest letter at each place (parent)
chain 1: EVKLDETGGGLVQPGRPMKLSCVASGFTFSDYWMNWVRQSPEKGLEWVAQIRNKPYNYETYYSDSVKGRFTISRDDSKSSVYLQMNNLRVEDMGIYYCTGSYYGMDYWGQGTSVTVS
chain 2: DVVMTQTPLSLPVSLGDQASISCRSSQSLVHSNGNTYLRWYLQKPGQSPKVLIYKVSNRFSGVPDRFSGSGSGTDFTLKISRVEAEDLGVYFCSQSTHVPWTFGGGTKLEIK

- Variants of: B1
- Assay Protocol: Kd (Tite-Seq)
- Reported Conditions: with fluorescein; format: scFv 4-4-20, heavy + light
pKd: −log10 of the molar value.
Quantity Kind: pKd

These solved cases illustrate the format of a correct answer.
* chain 1 G100L W108Q | ≤ 5.00
* chain 1 F29Q V37A | 5.25
* chain 1 S30D W33N | ≤ 5.00

Record pKd per entry; entries follow.
1. chain 1 M34K N35S
2. chain 1 M105F D106C
3. chain 1 S101M Y103D
4. chain 1 T28G N35C
5. chain 1 M34C V37I
6. chain 1 Y107Q W108Q
7. chain 1 T28L F29N

-- reply
1. ≤ 5.00
2. ≤ 5.00
3. ≤ 5.00
4. ≤ 5.00
5. 8.15
6. ≤ 5.00
7. ≤ 5.00
